Test system: MS2 coat protein
protocol_description: apparent KD of MS2 coat protein; designed switch direction (-1 OFF switch, 1 ON switch): -1; higher = weaker reporter binding
settings: input ligand: microRNA oligo, concentration not stated
Please note: yes (1) applies when apparent KD of MS2 coat protein is 40 nM or greater, and no (0) applies otherwise.

Some solved cases for reference:
GCUUGUGGGCAAGGAUAUCCUACGUUGUUCUGGUUCGUGUCUGUCACAUGAGGAUCACCCAUGUGGGAGAAGGUGCAUUUGGGU [Design 59] (Eterna round: R96, puzzle: Exclusion NG 2) = no (0)
AUCCUGAGGCUUUGCUUUAGGCGUACAUGAGGAUCACCCAUGUAGGAUAUGGUAGGCUUUGCUUACCAGAAGGACAUUAUGAUC [JL EXNG3 1.19] (Eterna round: R96, puzzle: Exclusion NG 3) = yes (1)

Query string: Confirm if apparent KD of MS2 coat protein reported for the sequence UGUCAGAUGGUAGGAUAUCCUUAUCGCGUGUCCCUUUCCUAACAUGAGGAUCACCCAUGUCGGUGGGAGAAGGGCCGUAUGGUG [salish99_ExNG02_R04_038] (Eterna round: R96, puzzle: Exclusion NG 2) is 40 nM or above.
Result string: no (0)

Query string: Is apparent KD of MS2 coat protein for CAGUUCCAGGGAGGAUAUCCGAAAGGAAGUGUAGGAGAAGGCCCAAACUGAAAACACAUGAGGAUCACCCAUGUAGGUGUUCUC [PowerStrip EXNG 1.20] (Eterna round: R96, puzzle: Exclusion NG 1) at or above 40 nM?
Result string: yes (1)

Query string: Textbook exercise: given the entry AUACCACGAGGAUAUCGUCUAUUCCACAUGAGGAUCACCCAUGUUAUCCAUGUUUCGUUUCGAGAAGGCGUGGGUU [JR_E5_Sub074] (Eterna round: R96, puzzle: Exclusion 5) , state whether its apparent KD of MS2 coat protein is greater than or equal to 40 nM.
Result string: no (0)

* * *

Tested on: MS2 coat protein
protocol_description: apparent KD of MS2 coat protein; designed switch direction (-1 OFF switch, 1 ON switch): -1; higher = weaker reporter binding
settings: input ligand: FMN 200 uM
endpoint: apparent KD of MS2 coat protein (nM)
Note: unit nM is implicit; provide only the numeric part.

These recorded examples may help you get a feel for the data.
CCGCUACAUGAGGAUCACCCAUGUCAGGAUAUCGUACGUUCGUCGAAAGACGAUCGUACGAGAAGGGUGUGCGG [Eli x1 4.37] (Eterna round: R97, puzzle: Exclusion 1) = 169
CCUCUACAUGAGGAUCACCCAUGUGAGGAUAUGUUGACGAGCCUGAAAAGGCUGGUCAACAGAAGGCAUAUGUA [Exclusion 1 (Mod 2 solution 16 by Eternabot)] (Eterna round: R97, puzzle: Exclusion 1) = 40.3

Now, please, on to the next sequence.
Entry GCGGUAUUCCCUGGAGUACCAUACAUGAGGAUCACCCAUGUAUAGGAUAUUGCAGGAGACAGCUGCGAGAAGGGUACAGGGUGU [Dierceza] (Eterna round: R96, puzzle: Exclusion NG 3) — recorded apparent KD of MS2 coat protein = 26.6

* * *

System: K4 kissing-loop RNA reporter;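 note: bound reporter read as fluorescence of individual clusters on recovered sequencing chips by microscopy, with normalized cluster intensities fitted with a binding model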
protocol_description: apparent KD of K4 kissing-loop reporter; higher = weaker reporter binding
settings: Eterna round: R107; input ligand: theophylline 20 uM
Binning scheme for apparent KD of K4 kissing-loop reporter: bin A = under 0.1 µM, bin B = from 0.1 µM up to 0.5 µM, bin C = 0.5 µM and over

Reference set (4 entries):
UUUUGGUUCUGAGGAUAUUCGAAGAAAUAUAGUGAUGUUAUAUAAGGAGGAGGAUGUAGGGAGGAAGGAGAAGGCAGAAGAGGAG [ExFMNB.J] = bin B
AGAGCGGUCGAAGGAUAUGAGACAACCAACGGUGAGUGAUGUUUGCCGAGUAAACCUCUAGUUGCGUCAGAAGGUCGGCUCAGUC [theeternabot_sameState_KL_FMN_B_25] = bin C
AAGUGUCAUUAGACACAGACUACAAUACGCUAGGAUAUGCUGAUAAGCAGAAGGAGUGAUGUUCCUUUCAAGUAGUCAAUUAAAU [FmnAX 22 Mat Inspired #SwitchBubble #StaticStem #K4Late] = bin B
UCGAACGAUGGAAGGAGCGCUCGUCAGUCCUGCGAGUGAUGUUCGUGGGUAAAUAGUCGCGAGCAGGUAGGUCGCCAUCUUGGGC [Reriat] = bin B

Here is the next item to consider.
Query string: Just checking, what class would you give UACUAUAGUGAUGUUAUAGAUAAACCAGAUACCAGUGUGACAUAACACCCUUGGCAGCUGAUAAGGGAACAUAUGAAAACAUAUG [AstroSSTHeAED5.17] here?
Result string: bin B
